Experiment: Biodistribution in sham-operated rats with and without excess cold compound
Assay type: in vivo
Conditions: male, Sprague Dawley, rat, injection site, iv, 3 MBq, total radioactivity, 15 days post-op, 1 hour post-injection, +100-fold excess cold Compound 8, read-out: Activity in Injection Site, Mean
Numbered stars: 1 amine (or outer) side, 2 acyl side, 3 side chain; on linkers, the order of the positions; unused ones are H or OH. Bridge positions count the residues as written; N and C are the ends. Side chains are listed from the residue outwards. Peptide text beside a SMILES is read from it. * marks the point of attachment. X1 = C/C(=N\O)C(C)(C)NCCC(CCNC(C)(C)/C(C)=N/O)CCN*; Glutaryl = O=C(CCCC(=O)[*:2])[*:1]; X2 = NC(=O)COCC(=O)NCCOCCOCCOCCN*
OBSERVED_PROPERTY: tissue uptake dose at 1 h (%ID)
Answers are plain numbers, in %ID.

I'd like to know its tissue uptake dose at 1 h. The compound in question is C/C(=N\O)C(C)(C)NCCC(CCNC(=O)CCCC(=O)NCCCC[C@@H]1NC(=O)CSC[C@@H](C(=O)NCCOCCOCCOCCNC(=O)COCC(N)=O)NC(=O)[C@H](Cc2ccccc2)NC(=O)[C@@H]2CSSC[C@H](NC1=O)C(=O)N[C@@H](CCCNC(=N)N)C(=O)NCC(=O)N[C@@H](CC(=O)O)C(=O)N2)CCNC(C)(C)/C(C)=N/O (stereo partly shown) [Compound 8] ({CH2CO}-K([Glutaryl-X1])CRGDCFC-X2; disulfide 2-6; thioether N-8)
1.44

---

Assay: Biodistribution in BDL rats with and without excess cold compound
Assay type: in vivo
Conditions: male, Sprague Dawley, rat, muscle, iv, total radioactivity, BDL rats, 15 days post-op, 1 hour post-injection, 100-fold excess cold Compound 8; read-out: Activity in Muscle, Mean
Experimental: On the appropriate day post surgery BDL and sham animals were removed and put under isoflurane anaesthesia, then each animal was injected with 0.3 ml intravenously (i.v.) via tail vein (˜3MBq). At the appropriate time point post-injection of the test item, each animal was re-anaesthetised with isoflurane, sacrificed by cervical dislocation weighed and the weight recorded via a barcode scanning system. […]
Numbered stars: 1 amine (or outer) side, 2 acyl side, 3 side chain; on linkers, the order of the positions; unused ones are H or OH. Bridge positions count the residues as written; N and C are the ends. Side chains are listed from the residue outwards. Peptide text beside a SMILES is read from it. * marks the point of attachment. X1 = C/C(=N\O)C(C)(C)NCCC(CCNC(C)(C)/C(C)=N/O)CCN*; Glutaryl = O=C(CCCC(=O)[*:2])[*:1]; X2 = NC(=O)COCC(=O)NCCOCCOCCOCCN*
OBSERVED_PROPERTY: tissue uptake dose at 1 h (%ID)
Answers are plain numbers, in %ID.

I'd like to know its tissue uptake dose at 1 h. The molecule in question is C/C(=N\O)C(C)(C)NCCC(CCNC(=O)CCCC(=O)NCCCC[C@@H]1NC(=O)CSC[C@@H](C(=O)NCCOCCOCCOCCNC(=O)COCC(N)=O)NC(=O)[C@H](Cc2ccccc2)NC(=O)[C@@H]2CSSC[C@H](NC1=O)C(=O)N[C@@H](CCCNC(=N)N)C(=O)NCC(=O)N[C@@H](CC(=O)O)C(=O)N2)CCNC(C)(C)/C(C)=N/O (stereo partly shown) [Compound 8] ({CH2CO}-K([Glutaryl-X1])CRGDCFC-X2; disulfide 2-6; thioether N-8)
8.76

---

Assay: Biodistribution in sham-operated rats with and without excess cold compound
Type: in vivo
Conditions: male, Sprague Dawley, rat, heart, iv, 3 MBq, total radioactivity, 15 days post-op, 1 hour post-injection, +100-fold excess cold Compound 8, read-out: Activity in Heart, Mean
Procedure: On the appropriate day post surgery BDL and sham animals were removed and put under isoflurane anaesthesia, then each animal was injected with 0.3 ml intravenously (i.v.) via tail vein (˜3MBq). At the appropriate time point post-injection of the test item, each animal was re-anaesthetised with isoflurane, sacrificed by cervical dislocation weighed and the weight recorded via a barcode scanning system. […]
Numbered stars: 1 amine (or outer) side, 2 acyl side, 3 side chain; on linkers, the order of the positions; unused ones are H or OH. Bridge positions count the residues as written; N and C are the ends. Side chains are listed from the residue outwards. Peptide text beside a SMILES is read from it. * marks the point of attachment. X1 = C/C(=N\O)C(C)(C)NCCC(CCNC(C)(C)/C(C)=N/O)CCN*; Glutaryl = O=C(CCCC(=O)[*:2])[*:1]; X2 = NC(=O)COCC(=O)NCCOCCOCCOCCN*
OBSERVED_PROPERTY: tissue uptake dose at 1 h (%ID)
Numbers only, in %ID.

I'd like to know its tissue uptake dose at 1 h. The compound in question is C/C(=N\O)C(C)(C)NCCC(CCNC(=O)CCCC(=O)NCCCC[C@@H]1NC(=O)CSC[C@@H](C(=O)NCCOCCOCCOCCNC(=O)COCC(N)=O)NC(=O)[C@H](Cc2ccccc2)NC(=O)[C@@H]2CSSC[C@H](NC1=O)C(=O)N[C@@H](CCCNC(=N)N)C(=O)NCC(=O)N[C@@H](CC(=O)O)C(=O)N2)CCNC(C)(C)/C(C)=N/O (stereo partly shown) [Compound 8] ({CH2CO}-K([Glutaryl-X1])CRGDCFC-X2; disulfide 2-6; thioether N-8)
0.1

---

Assay: Biodistribution in sham-operated rats with and without excess cold compound
Type: in vivo
Conditions: male, Sprague Dawley, rat, injection site, iv, 3 MBq, total radioactivity, 15 days post-op, 1 hour post-injection, no excess, read-out: Activity in Injection Site, Mean
Numbered stars: 1 amine (or outer) side, 2 acyl side, 3 side chain; on linkers, the order of the positions; unused ones are H or OH. Bridge positions count the residues as written; N and C are the ends. Side chains are listed from the residue outwards. Peptide text beside a SMILES is read from it. * marks the point of attachment. X1 = C/C(=N\O)C(C)(C)NCCC(CCNC(C)(C)/C(C)=N/O)CCN*; Glutaryl = O=C(CCCC(=O)[*:2])[*:1]; X2 = NC(=O)COCC(=O)NCCOCCOCCOCCN*
OBSERVED_PROPERTY: tissue uptake dose at 1 h (%ID)
Numbers only, in %ID.

I'd like to know its tissue uptake dose at 1 h. The compound in question is C/C(=N\O)C(C)(C)NCCC(CCNC(=O)CCCC(=O)NCCCC[C@@H]1NC(=O)CSC[C@@H](C(=O)NCCOCCOCCOCCNC(=O)COCC(N)=O)NC(=O)[C@H](Cc2ccccc2)NC(=O)[C@@H]2CSSC[C@H](NC1=O)C(=O)N[C@@H](CCCNC(=N)N)C(=O)NCC(=O)N[C@@H](CC(=O)O)C(=O)N2)CCNC(C)(C)/C(C)=N/O (stereo partly shown) [Compound 8] ({CH2CO}-K([Glutaryl-X1])CRGDCFC-X2; disulfide 2-6; thioether N-8)
1.66

---

Assay: Biodistribution in sham-operated rats with and without excess cold compound
Assay type: in vivo
Conditions: male, Sprague Dawley, rat, muscle, iv, 3 MBq, total radioactivity, 15 days post-op, 1 hour post-injection, no excess, read-out: Activity in Muscle, Mean
Numbered stars: 1 amine (or outer) side, 2 acyl side, 3 side chain; on linkers, the order of the positions; unused ones are H or OH. Bridge positions count the residues as written; N and C are the ends. Side chains are listed from the residue outwards. Peptide text beside a SMILES is read from it. * marks the point of attachment. X1 = C/C(=N\O)C(C)(C)NCCC(CCNC(C)(C)/C(C)=N/O)CCN*; Glutaryl = O=C(CCCC(=O)[*:2])[*:1]; X2 = NC(=O)COCC(=O)NCCOCCOCCOCCN*
OBSERVED_PROPERTY: tissue uptake dose at 1 h (%ID)
Numbers only, in %ID.

I'd like to know its tissue uptake dose at 1 h. The molecule in question is C/C(=N\O)C(C)(C)NCCC(CCNC(=O)CCCC(=O)NCCCC[C@@H]1NC(=O)CSC[C@@H](C(=O)NCCOCCOCCOCCNC(=O)COCC(N)=O)NC(=O)[C@H](Cc2ccccc2)NC(=O)[C@@H]2CSSC[C@H](NC1=O)C(=O)N[C@@H](CCCNC(=N)N)C(=O)NCC(=O)N[C@@H](CC(=O)O)C(=O)N2)CCNC(C)(C)/C(C)=N/O (stereo partly shown) [Compound 8] ({CH2CO}-K([Glutaryl-X1])CRGDCFC-X2; disulfide 2-6; thioether N-8)
10.4

---

Test: Biodistribution in sham-operated rats with and without excess cold compound
Type: in vivo
Settings: male, Sprague Dawley, rat, thyroid, iv, 3 MBq, total radioactivity, 15 days post-op, 1 hour post-injection, +10K-fold excess cold Compound 8, read-out: Activity in Thyroid, Mean
Numbered stars: 1 amine (or outer) side, 2 acyl side, 3 side chain; on linkers, the order of the positions; unused ones are H or OH. Bridge positions count the residues as written; N and C are the ends. Side chains are listed from the residue outwards. Peptide text beside a SMILES is read from it. * marks the point of attachment. X1 = C/C(=N\O)C(C)(C)NCCC(CCNC(C)(C)/C(C)=N/O)CCN*; Glutaryl = O=C(CCCC(=O)[*:2])[*:1]; X2 = NC(=O)COCC(=O)NCCOCCOCCOCCN*
OBSERVED_PROPERTY: tissue uptake dose at 1 h
# number then unit; no other words

I'd like to know its tissue uptake dose at 1 h. The molecule in question is C/C(=N\O)C(C)(C)NCCC(CCNC(=O)CCCC(=O)NCCCC[C@@H]1NC(=O)CSC[C@@H](C(=O)NCCOCCOCCOCCNC(=O)COCC(N)=O)NC(=O)[C@H](Cc2ccccc2)NC(=O)[C@@H]2CSSC[C@H](NC1=O)C(=O)N[C@@H](CCCNC(=N)N)C(=O)NCC(=O)N[C@@H](CC(=O)O)C(=O)N2)CCNC(C)(C)/C(C)=N/O (stereo partly shown) [Compound 8] ({CH2CO}-K([Glutaryl-X1])CRGDCFC-X2; disulfide 2-6; thioether N-8)
0.04 %ID

From: patent US8834843B2
